Molecular target: T1, 4H2931-bH
T1 chain: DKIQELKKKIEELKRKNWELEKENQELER
Test: two-hybrid library CCNG1;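 further: natural log of median RNA to DNA barcode read ratio; higher means stronger binding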
Measure name: interaction score
Form field (numeric): enter value without unit.

## Input Return value of interaction score for input DKIQELKKKIEELERKIWELKKENQELER [4H2859-bH] , no commentary.
## Output -0.182

## Input Fill in reported interaction score for this entry: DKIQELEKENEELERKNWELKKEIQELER [4H2233-bH]
## Output -0.862

## Input For the binder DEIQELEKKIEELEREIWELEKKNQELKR [4H264-bH] , report interaction score.
## Output 0.678

## Input Recall and state the measured interaction score for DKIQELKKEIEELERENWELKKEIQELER [4H2585-bH] .
## Output -0.336
